EXPERIMENTAL_TARGET: T1, human IL-23 (IL-23-His-Biotin, Akesobio, 20161209) (human, UniProt Q9NPF7 20-189; P29460 23-328)
T1 construct: His-tagged and biotinylated; also called human IL23-His-Biotin
T1 sequence (looked up) 1: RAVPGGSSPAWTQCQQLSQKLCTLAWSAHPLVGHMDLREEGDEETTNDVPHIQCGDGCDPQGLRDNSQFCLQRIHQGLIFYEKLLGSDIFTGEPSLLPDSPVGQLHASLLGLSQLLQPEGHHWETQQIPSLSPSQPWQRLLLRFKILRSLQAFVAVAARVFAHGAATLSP
T1 sequence (looked up) 2: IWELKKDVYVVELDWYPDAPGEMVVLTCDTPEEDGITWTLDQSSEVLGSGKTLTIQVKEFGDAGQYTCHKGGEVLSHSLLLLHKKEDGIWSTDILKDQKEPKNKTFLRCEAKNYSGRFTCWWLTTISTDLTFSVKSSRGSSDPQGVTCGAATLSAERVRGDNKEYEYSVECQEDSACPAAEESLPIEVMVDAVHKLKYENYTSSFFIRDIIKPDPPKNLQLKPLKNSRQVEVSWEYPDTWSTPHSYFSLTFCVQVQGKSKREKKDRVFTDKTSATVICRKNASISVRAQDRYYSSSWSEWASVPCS
EXPERIMENT_NOTES: FACS competition, IL-23-His-Biotin 2 µg/mL on 293T-IL-12RB1&IL-23R cells, antibody 0.04 µg/mL
Description: 2.1. […] 200 μL of 1% PBSA was added into each sample, and the mixture was centrifuged at 700×g for 5 min to discard the supernatant. According to experiment design, correspondingly diluted antibody (highest final concentration of 30 μg/mL, 3-fold dilution, 8 concentrations in total) and human IL-23 (IL-23-His-Biotin, Akesobio, 20161209) (final concentration of 2 μg/mL) were mixed at a ratio of 1:1, and a blank control was set. […]
READOUT: MFI

| BINDER | NUMERIC_VALUE |
| --- | --- |
| ustekinumab (trade name Stelara) (antibody, V domains shown) VH: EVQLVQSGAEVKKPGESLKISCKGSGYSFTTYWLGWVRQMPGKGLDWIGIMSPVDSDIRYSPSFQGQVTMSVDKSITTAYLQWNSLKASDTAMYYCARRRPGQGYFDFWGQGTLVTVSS VL: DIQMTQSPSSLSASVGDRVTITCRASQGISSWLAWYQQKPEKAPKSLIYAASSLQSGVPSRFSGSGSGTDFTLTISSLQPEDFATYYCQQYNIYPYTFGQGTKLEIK | 216 |
| H5L11 (antibody, human IgG1, kappa, V domains shown, IgG1/kappa) VH: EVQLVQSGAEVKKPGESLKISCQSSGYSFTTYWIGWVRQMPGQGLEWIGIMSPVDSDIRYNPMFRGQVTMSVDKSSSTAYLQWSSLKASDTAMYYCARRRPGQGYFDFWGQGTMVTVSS VL: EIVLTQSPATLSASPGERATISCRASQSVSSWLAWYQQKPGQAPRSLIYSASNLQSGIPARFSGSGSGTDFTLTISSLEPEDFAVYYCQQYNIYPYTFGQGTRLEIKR | 224 |
| H5L12 (antibody, human IgG1, kappa, V domains shown, IgG1/kappa) VH: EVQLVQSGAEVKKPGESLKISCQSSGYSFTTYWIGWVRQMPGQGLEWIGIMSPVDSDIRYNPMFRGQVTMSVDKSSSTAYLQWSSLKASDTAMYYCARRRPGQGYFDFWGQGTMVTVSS VL: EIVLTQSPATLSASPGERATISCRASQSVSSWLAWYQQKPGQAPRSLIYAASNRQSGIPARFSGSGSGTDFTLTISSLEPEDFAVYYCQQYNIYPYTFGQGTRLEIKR | 234 |
| H5L14 (antibody, human IgG1, kappa, V domains shown, IgG1/kappa) VH: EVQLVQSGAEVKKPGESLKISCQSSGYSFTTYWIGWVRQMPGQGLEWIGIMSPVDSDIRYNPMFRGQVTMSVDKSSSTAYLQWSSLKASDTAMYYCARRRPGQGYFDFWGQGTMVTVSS VL: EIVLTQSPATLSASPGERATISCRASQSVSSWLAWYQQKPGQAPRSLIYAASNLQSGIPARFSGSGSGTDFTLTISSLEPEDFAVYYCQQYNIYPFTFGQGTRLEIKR | 216 |
| H5L10 (antibody, human IgG1, kappa, V domains shown, IgG1/kappa) VH: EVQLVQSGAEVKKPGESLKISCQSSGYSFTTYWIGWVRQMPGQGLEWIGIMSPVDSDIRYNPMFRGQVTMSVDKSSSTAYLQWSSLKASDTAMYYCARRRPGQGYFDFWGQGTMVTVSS VL: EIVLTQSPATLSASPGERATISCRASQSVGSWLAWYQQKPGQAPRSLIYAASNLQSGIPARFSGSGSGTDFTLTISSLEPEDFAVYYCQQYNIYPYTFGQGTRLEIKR | 230 |
| H5L9 (antibody, human IgG1, kappa, V domains shown, Humanized anti-human IL-12/IL-23 p40 antibody; IgG1 (P01857) / kappa (P01834) constant regions) VH: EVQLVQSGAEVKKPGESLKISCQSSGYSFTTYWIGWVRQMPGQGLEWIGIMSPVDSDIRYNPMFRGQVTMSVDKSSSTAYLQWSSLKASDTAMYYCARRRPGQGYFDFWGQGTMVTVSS VL: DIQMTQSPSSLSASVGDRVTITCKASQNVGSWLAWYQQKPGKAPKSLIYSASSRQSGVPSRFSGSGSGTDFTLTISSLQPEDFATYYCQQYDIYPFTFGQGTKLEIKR | 221 |
